# System: A673/TR/shEF
# procedureText: cell viability (LOESS-normalised, relative to median of negative controls) (log2 ratio); higher = more viable cells (less compound effect), active = hit call of the paper (over 3 MAD below the median)
# conditionSummary: 0.25 µM; library screen: screen2; EWS-FLI1 expression: high (no doxycycline); treatment time: 72 h
Hit rate of the full screen: of about 3,200 compounds, about 300 (9.4%) showed activity. The sample holds actives, similar compounds and a random draw of the others, so the mix is not that of the screen.
Define the label as y when cell viability (log2) is strictly less than 0.07 and as n in all remaining cases.

{"columns": ["molecule", "cat"],
 "data": [
  ["COc1cc(Cc2cnc(N)nc2N)cc(OC)c1OC", "y"],
  ["C[n+]1cc2c3c(ccc2c2ccc4cc5c(cc4c21)OCO5)OCO3", "n"],
  ["COc1cc(OC)cc(C(CNc2ncnc3c2ncn3C2O[C@H](CO)[C@@H](O)[C@H]2O)c2ccccc2C)c1 (some centres undefined)", "n"],
  ["C[N+](C)(C)CCC(=O)c1cccc2ccccc12", "y"],
  ["Clc1ccc(C(c2ccc(Cl)cc2)n2cc[n+](CC(OCc3ccc(Cl)cc3Cl)c3ccc(Cl)cc3Cl)c2)cc1 (centres undefined)", "n"],
  ["CC(C)(C)c1ccc(S(=O)(=O)/C=C/C#N)cc1", "n"]
]}

Query string: Quick check: does CC(C)(C)[C@]1(O)CCN2CC3c4ccccc4CCc4cccc(c43)[C@@H]2C1 (some centres undefined) have cell viability (log2) under 0.07?
Result string: n

Query string: Quick check: does `O=c1[nH]c(=O)n([C@H]2C[C@H](O)[C@@H](CO)O2)cc1F` have cell viability (log2) under 0.07?
Result string: y
